Target: T1, murine BACE1 ECD
T1 construct: analyte of the Octet assay (200 nM) and enzyme of the first short substrate assay
T1 sequence (single chain, as listed by the source limits assumed): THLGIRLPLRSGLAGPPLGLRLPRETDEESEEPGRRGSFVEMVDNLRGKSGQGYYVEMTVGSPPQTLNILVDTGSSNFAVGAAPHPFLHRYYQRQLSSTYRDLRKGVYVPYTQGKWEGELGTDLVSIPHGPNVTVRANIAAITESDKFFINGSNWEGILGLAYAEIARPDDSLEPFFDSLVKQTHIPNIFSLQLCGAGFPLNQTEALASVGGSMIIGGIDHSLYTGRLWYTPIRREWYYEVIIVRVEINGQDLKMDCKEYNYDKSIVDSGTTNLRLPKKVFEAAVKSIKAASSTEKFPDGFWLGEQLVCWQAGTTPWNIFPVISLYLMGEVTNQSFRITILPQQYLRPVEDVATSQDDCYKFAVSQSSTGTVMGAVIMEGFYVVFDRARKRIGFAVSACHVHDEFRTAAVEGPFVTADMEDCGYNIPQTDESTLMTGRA
Assay: Octet, pH 5.0;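 note: antibodies captured on anti-human capture sensor tips, dissociation monitored in PBS with BSA buffer, kinetics fitted with a one-to-one binding model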
pKd: −log10 of the molar value.
Kindly state pKd for each of the entries shown.

# lookup: pKd of 6279 (antibody, V domains shown, anti-BACE1 IgG) VH: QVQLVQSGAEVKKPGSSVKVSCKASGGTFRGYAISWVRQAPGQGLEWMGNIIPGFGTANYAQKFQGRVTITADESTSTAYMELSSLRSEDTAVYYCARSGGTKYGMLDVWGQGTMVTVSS VL: EIVMTQSPATLSVSPGERATLSCRASQSVSSNLAWYQQKPGQAPRLLIYGASTRATGIPARFSGSGSGTEFTLTISSLQSEDFAVYYCQQLLLWPPRTFGGGTKVEIK
> 9.37

# lookup: pKd of 6291 (antibody, V domains shown, anti-BACE1 IgG) VH: QLQLQESGPGLVKPSETLSLTCTVSGGSISSSSYYWGWIRQPPGKGLEWIGMIYYSGSTWYNPSLKSRVTISVDTSKNQFSLKLSSVTAADTAVYYCARVGHGVSYFDLWGRGTLVTVSS VL: EIVLTQSPATLSLSPGERATLSCRASQSVSSYLAWYQQKPGQAPRLLIYGASKRATGIPARFSGSGSGTDFTLTISSLEPEDFAVYYCQQVYTWPPRTFGGGTKVEIK
> 9.52
